Test system: MS2 coat protein
Test: apparent KD of MS2 coat protein; designed switch direction (-1 OFF switch, 1 ON switch): -1; higher = weaker reporter binding
Conditions: input ligand: FMN 200 uM
Could you please report measured apparent KD of MS2 coat protein for the items listed next?
Respond with a number, then the unit of measure.

# input Requested field: apparent KD of MS2 coat protein. Item: UUCAUGUAAGGAUAUACCUCGAGCUGAUGAGAGUCUCAAAUGUAGAAGGUACAUGAGGAUCACCCAUGUACAGG [Eternabot (Original) Solution 5] (Eterna round: R97, puzzle: Exclusion 4)
# output 65.2 nM

# input What value of apparent KD of MS2 coat protein has been reported for the following sequence? AAAUUAGCAAGUAGGUCCGACAUGAGGAUCACCCAUGUUAUCUGAAAUAACGCUGCAUGAUUGUGCGCUCGUCUUAG [Sensor-V1 #8] (Eterna round: R97, puzzle: Sensor, turn-off variant 1)
# output 69.1 nM

# input Reported apparent KD of MS2 coat protein, sequence GAUCAGUCAGGAUAUCAAUCCGCCUGUGAUACGCAGGCGGCUGAGAAGGGACAUGAGGAUCACCCAUGUAAAGA [jl-ex4-4.22 ViennaUCT mod] (Eterna round: R97, puzzle: Exclusion 4) : ____
# output 191 nM

Source listed as the supplement of paper PMC9170038.
